This collection of values is drawn from patent US20240228562A1.

- Test System: T1, recombinant human CTGF-Fc protein (Creative Biomart) (human)
- T1 construct: Bought; also called human CTGF with a human IgG1 Fc Tag
- T1 sequence (chain, as listed by the source limits assumed): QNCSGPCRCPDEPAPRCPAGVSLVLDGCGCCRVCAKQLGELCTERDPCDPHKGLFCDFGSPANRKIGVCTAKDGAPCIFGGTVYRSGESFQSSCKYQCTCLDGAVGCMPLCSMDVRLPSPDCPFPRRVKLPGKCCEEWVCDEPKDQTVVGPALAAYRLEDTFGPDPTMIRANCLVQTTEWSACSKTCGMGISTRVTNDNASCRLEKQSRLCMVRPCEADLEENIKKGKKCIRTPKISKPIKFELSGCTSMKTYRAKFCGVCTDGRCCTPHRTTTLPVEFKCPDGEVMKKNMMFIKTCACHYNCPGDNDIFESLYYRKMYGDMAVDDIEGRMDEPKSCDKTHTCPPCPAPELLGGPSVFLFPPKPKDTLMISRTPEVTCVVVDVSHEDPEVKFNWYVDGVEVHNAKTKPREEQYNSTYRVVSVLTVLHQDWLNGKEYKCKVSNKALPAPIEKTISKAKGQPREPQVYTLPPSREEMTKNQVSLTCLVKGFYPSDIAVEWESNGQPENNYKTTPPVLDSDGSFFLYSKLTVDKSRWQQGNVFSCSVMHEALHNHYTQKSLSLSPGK
- Experiment Summary: SPR (Biacore)
pKd: −log10 of the molar value.

Binder	pKd
lipocalin mutein of SEQ ID NO: 12 (designed binder, also called hNGAL mutein; not shown: C-terminal His-tag) QDSTSDLIPAPPLSKVPLQQNFQDNQFQGKWYVVGLAGNAILREDKYPAKMFATIYELKEDKSYDVTSVRFENKSCVYTIKTFVPGSQPGEFTTGNIKSAPGQTSTLVRVVSTNYNQHAMVFFKHVSQNREFFVITLYGRTKELTSELKENFIRFSKSLGLPENHIVFPVPIDQCIDG	8.62
lipocalin mutein of SEQ ID NO: 22 (designed binder, also called hNGAL mutein; not shown: C-terminal His-tag) QDSTSDLIPAPPLSKVPLQQNFQDNQFQGKWYVVGIAGNAILRVDKQPAKMFATIYELKEDKSYDVTSVRFEAKSCVYTIKTFVPGSQPGEFTAGNIKSAPGQTSTLVRVVSTNYNQHAMVFFKHVSQNREIFVITLYGRTKELTSELKENFIRFSKSLGLPENHIVFPVPIDQCIDG	10.24
lipocalin mutein of SEQ ID NO: 34 (designed binder, also called hNGAL mutein) QDSTSDLIPAPPLSKVPLQQNFQDNQFQGKWYVVGWAGNVILREDKQPFKMSATIYELKEDKSYDVTEVVFEQKKCHYIIKTFVPGSQPGEFTLGDIKSPPGETSTLVRVVSTNYNQHAMVFFKKVSQNREFFWITLYGRTKELTSELKENFIRFSKSLGLPENHIVFPVPIDQCIDG	8.95
